Target: Polyunsaturated fatty acid 5-lipoxygenase (Homo sapiens)
Sequence (P09917 whole entry): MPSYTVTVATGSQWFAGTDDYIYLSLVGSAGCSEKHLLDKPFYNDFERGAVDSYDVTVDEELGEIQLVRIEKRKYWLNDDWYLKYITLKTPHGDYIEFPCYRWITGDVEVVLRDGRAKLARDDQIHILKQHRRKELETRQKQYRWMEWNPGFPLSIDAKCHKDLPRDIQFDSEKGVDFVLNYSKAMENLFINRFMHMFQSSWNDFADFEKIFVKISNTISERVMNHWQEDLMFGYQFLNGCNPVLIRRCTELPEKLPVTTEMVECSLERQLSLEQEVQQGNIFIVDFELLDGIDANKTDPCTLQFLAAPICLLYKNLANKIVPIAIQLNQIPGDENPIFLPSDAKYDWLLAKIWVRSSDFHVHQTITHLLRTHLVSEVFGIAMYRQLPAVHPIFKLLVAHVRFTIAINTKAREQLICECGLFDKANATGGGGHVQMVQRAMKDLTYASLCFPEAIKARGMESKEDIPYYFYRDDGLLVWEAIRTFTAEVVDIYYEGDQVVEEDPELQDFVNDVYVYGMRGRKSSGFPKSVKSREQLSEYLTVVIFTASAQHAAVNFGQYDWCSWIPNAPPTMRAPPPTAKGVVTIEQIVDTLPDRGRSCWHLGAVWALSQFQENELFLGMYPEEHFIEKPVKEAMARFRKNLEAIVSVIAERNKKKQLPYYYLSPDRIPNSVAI
Assay: Inhibition of 5-lipoxygenase in human neutrophils
pIC50: −log10 of the molar value.
Readings of pIC50 for the listed molecules
measured-property: pIC50

structure-string	measured
Cc1ccccc1CCn1cc(-c2ccc(-c3ccccc3COc3cc(C(F)(F)F)ccc3Cl)cc2)nn1	< 4.52
c1ccc(CCCn2cc(-c3ccc(-c4ccccc4COc4cccc5ccccc45)cc3)nn2)cc1	< 4.52
c1ccc(CCCn2cc(-c3ccc(-c4ccc(Oc5ccccc5)cc4)cc3)nn2)cc1	< 4.52

---

biological target: Polyunsaturated fatty acid 5-lipoxygenase (Homo sapiens); experiment: Inhibition of 5-lipoxygenase in human neutrophils
pIC50: −log10 of the molar value.
Readings of pIC50 for the listed molecules

structure-string	pIC50
c1ccc(CCCn2cc(-c3ccc(-c4cc5ccccc5c5ccccc45)cc3)nn2)cc1	< 4.52
Oc1ccc(-c2ccc(-c3cn(CCCc4ccccc4)nn3)cc2)cc1	< 4.52
FC(F)(F)c1ccc(Cl)c(OCc2ccccc2-c2ccc(-c3cn(CCCc4ccccc4)nn3)cc2)c1	< 4.52

---

Readings of remaining activity for the listed molecules
molecular target: Prostaglandin E synthase / mPGES-1 (Homo sapiens) (UniProt O14684); experiment: Inhibition of Prostaglandin E2 synthase-1 in IL1-beta stimulated microsomal fraction of human A549 cell assessed as residual activity at 30 uM; details: Microsome
Sequence (O14684 whole entry, looked up): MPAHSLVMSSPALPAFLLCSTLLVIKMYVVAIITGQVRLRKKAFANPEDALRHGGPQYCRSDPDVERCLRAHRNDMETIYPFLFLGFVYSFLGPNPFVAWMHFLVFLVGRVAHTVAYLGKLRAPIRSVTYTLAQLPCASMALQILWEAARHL

structure-string	remaining activity
Oc1ccc(-c2ccc(-c3cn(CSc4ccccc4)nn3)cc2)cc1	89%
FC(F)(F)c1ccc(Cl)c(OCc2ccccc2-c2ccc(-c3cn(CCCc4ccccc4)nn3)cc2)c1	91.9%
Cc1ccccc1CCn1cc(-c2ccc(-c3ccccc3COc3cccc4ccccc34)cc2)nn1	90%
Cc1ccccc1CCn1cc(-c2ccc(-c3ccccc3COc3cc(C(F)(F)F)ccc3Cl)cc2)nn1	87.9%

---

biological target: UniProt:P09917; test: Inhibition of human recombinant 5-lipoxygenase expressed in Escherichia coli MV1190 by cell free assay

structure-string	system-name	IC50
Cc1ccccc1CCn1cc(-c2ccc(-c3ccccc3COc3cc(C(F)(F)F)ccc3Cl)cc2)nn1	UniProt:P09917	> 30 µM
c1ccc(CCCn2cc(-c3ccc(-c4cc5ccccc5c5ccccc45)cc3)nn2)cc1	UniProt:P09917	> 30 µM
O=C(OCc1cn(CSc2ccccc2)nn1)c1ccccc1	UniProt:P09917	> 30 µM
